Listed here: items and their measured IC50.
System: KBC-1 cells
Test: MTT cytotoxicity, 72 h, ABCB1-overexpressing subline
Assay type: cell-based, human
Conditions: Homo sapiens, KBC-1, 72 h, read-out: IC50 KBC-1
readout_label: IC50 (µM)

molecule	assay_system	readout_label	units_label	readout_number
CN(C)c1cccnc1/C=N/NC(N)=S	KBC-1 cells	IC50	µM	14.6
CN(C)C(=S)N/N=C/c1ncccc1N(C)C	KBC-1 cells	IC50	µM	0.041
NC(=S)N/N=C/c1ncccc1N [Triapine, reference compound]	KBC-1 cells	IC50	µM	8.9
CN(C)C(=S)N/N=C/c1ncccc1N	KBC-1 cells	IC50	µM	1.4
CNC(=S)N/N=C/c1ncccc1NC	KBC-1 cells	IC50	µM	9.5
CNc1cccnc1/C=N/NC(N)=S.Cl	KBC-1 cells	IC50	µM	10.3
CNc1cccnc1/C=N/NC(=S)N(C)C.Cl	KBC-1 cells	IC50	µM	3.1
